Assay: ATG_BRE_CIS: Attagene CIS-FACTORIAL HepG2 Assay for human Bone Morphogenetic Protein (BMP) Response Element (BRE) (AID 2282933)
Settings: HepG2 BMP response element reporter, Attagene transcription factor profiling; actives raise or lower the signal
Activity calls are given as the source filed them. The calls were made as follows: active = hit-call score of the fitted dose curve at least 0.9, where 1 is the maximum; inactive = score below 0.9.
Would you mind answering with one of these outcomes? active, inactive

Query: Name the outcome recorded for `C[C@@H]1CCN(C(=O)[C@H](CCCN=C(N)N)NS(=O)(=O)c2cccc3c2NC[C@H](C)C3)[C@@H](C(=O)O)C1` in the assay.
Reply: inactive

Query: For `CCCCC1(COC(=O)CCC(=O)O)C(=O)N(c2ccccc2)N(c2ccccc2)C1=O` , which call appears in the assay record?
Reply: inactive

Query: Give the logged outcome of this assay for the following compound: COC(CC(C)CCCC(C)(C)O)OC (centres undefined)
Reply: inactive

Query: Assay result, entry `NC(=S)NNC(N)=S` — outcome?
Reply: inactive

Query: Hi, do you know how `CCO/C=C1\N=C(c2ccccc2)OC1=O` came out in this test?
Reply: inactive

Query: For `Cc1ncc([N+](=O)[O-])n1CCO` , which call appears in the assay record?
Reply: inactive

Query: Entry `C[C@H]1C[C@@H](O)CC(C)(C)C1` : call = ?
Reply: inactive

Query: Lab log entry: `CC(=O)c1c(C)c([N+](=O)[O-])c(C(C)(C)C)c([N+](=O)[O-])c1C` — outcome as called in the assay?
Reply: inactive

Query: Tell me the recorded outcome of this test for `Nc1ccc(N)c2c1C(=O)c1ccccc1C2=O` .
Reply: inactive

Query: Please state the recorded outcome for this compound: O=C(c1ccccc1)C(O)c1ccccc1 (centres undefined)
Reply: inactive

Query: So what was the verdict on `COc1cccc(OC)c1O` in this test?
Reply: inactive

Query: # outcome recorded in this test, key = `Cc1cc(CCC(=O)OCCOCCOCCOC(=O)CCc2cc(C)c(O)c(C(C)(C)C)c2)cc(C(C)(C)C)c1O`
Reply: inactive

Query: For `ON=C1CCCCC1` , which call appears in the assay record?
Reply: inactive

Query: Status in this test for `CCOC(=O)c1ccc(N)cc1` ?
Reply: inactive

Query: Record request — test call for `Cc1ccc(OC(=O)c2ccccc2O)cc1`
Reply: inactive

Query: Lab log entry: `O=C(O)c1ccc(O)cc1` — outcome as called in the assay?
Reply: inactive

Query: What did this assay record as the result for `Cc1[nH]c(=O)c(C#N)cc1-c1ccncc1` ?
Reply: inactive

Query: How was `O=C(Nc1ccc2c(O)c(N=Nc3ccc(N=Nc4ccc(S(=O)(=O)O)cc4)cc3)c(S(=O)(=O)O)cc2c1)c1ccccc1` classified in this test?
Reply: active

Query: Given CC(C=O)Cc1ccc(C(C)(C)C)cc1 (centres undefined) , state the outcome it received in this test.
Reply: inactive

Query: // return assay outcome for CCCCCCCC(=O)OCC(O)CO (centres undefined)
Reply: inactive

Query: I would be grateful if you could indicate the recorded call for `NCc1ccco1` .
Reply: inactive

Query: Hi team, can someone confirm the assay call for `CCOc1ccc(NC(=O)CC(C)=O)cc1` ?
Reply: inactive

Query: Returns: the outcome recorded for CCCC(O)C(O)CO (centres undefined) in this assay.
Reply: inactive

Query: Can you look up the reported call for `CCOC(=O)[C@@H](C)Oc1ccc(Oc2nc3ccc(Cl)cc3o2)cc1` for me?
Reply: active
